# BA log fold change listing for each entry below
# Test system: SLC16A11
# EXPERIMENTAL PROTOCOL: SLC16A11 protein-protein interaction study (immunoprecipitation, quantitative mass spectrometry)
# Design: species or system human
# REPORTED CONDITIONS: putative SLC16A11^REF interaction partners; immunoprecipitation from HEK293T cells vs empty vector control; Blandt-Altman
ENDPOINT NAME: BA log fold change

| MOLECULE | NUMERIC RESULT |
| --- | --- |
| TECR (protein) MKHYEVEILDAKTREKLCFLDKVEPHATIAEIKNLFTKTHPQWYPARQSLRLDPKGKSLKDEDVLQKLPVGTTATLYFRDLGAQISWVTVFLTEYAGPLFIYLLFYFRVPFIYGHKYDFTSSRHTVVHLACICHSFHYIKRLLETLFVHRFSHGTMPLRNIFKNCTYYWGFAAWMAYYINHPLYTPPTYGAQQVKLALAIFVICQLGNFSIHMALRDLRPAGSKTRKIPYPTKNPFTWLFLLVSCPNYTYEVGSWIGFAIMTQCLPVALFSLVGFTQMTIWAKGKHRSYLKEFRDYPPLRMPIIPFLL | 1.10 |
| SLC25A3 (protein) AVEEYSCEFGSAKYYALCGFGGVLSCGLTHTAVVPLDLVKCRMQVDPQKYKGIFNGFSVTLKEDGVRGLAKGWAPTFLGYSMQGLCKFGFYEVFKVLYSNMLGEENTYLWRTSLYLAASASAEFFADIALAPMEAAKVRIQTQPGYANTLRDAAPKMYKEEGLKAFYKGVAPLWMRQIPYTMMKFACFERTVEALYKFVVPKPRSECSKPEQLVVTFVAGYIAGVFCAIVSHPADSVVSVLNKEKGSSASLVLKRLGFKGVWKGLFARIIMIGTLTALQWFIYDSVKVYFRLPRPPPPEMPESLKKKLGLTQ | 1.65 |
| HSD17B12 (protein) MESALPAAGFLYWVGAGTVAYLALRISYSLFTALRVWGVGNEAGVGPGLGEWAVVTGSTDGIGKSYAEELAKHGMKVVLISRSKDKLDQVSSEIKEKFKVETRTIAVDFASEDIYDKIKTGLAGLEIGILVNNVGMSYEYPEYFLDVPDLDNVIKKMININILSVCKMTQLVLPGMVERSKGAILNISSGSGMLPVPLLTIYSATKTFVDFFSQCLHEEYRSKGVFVQSVLPYFVATKLAKIRKPTLDKPSPETFVKSAIKTVGLQSRTNGYLIHALMGSIISNLPSWIYLKIVMNMNKSTRAHYLKKTKKN | 1.26 |
| BAG2 (protein) AQAKINAKANEGRFCRSSSMADRSSRLLESLDQLELRVEALREAATAVEQEKEILLEMIHSIQNSQDMRQISDGEREELNLTANRLMGRTLTVEVSVETIRNPQQQESLKHATRIIDEVVNKFLDDLGNAKSHLMSLYSACSSEVPHGPVDQKFQSIVIGCALEDQKKIKRRLETLLRNIENSDKAIKLLEHSKGAGSKTLQQNAESRFN | 1.26 |

Where do these numbers come from? They come from patent US11471462B2.
